As shown below, each of these binders has a reported hNK2 EC50 (intracellular calcium mobilization, FLIPR, CHO-hNK2 cells) value.
# assayed target: T1, human NK2 Receptor (human, UniProt P21452 1-398)
# T1 sequence (looked up): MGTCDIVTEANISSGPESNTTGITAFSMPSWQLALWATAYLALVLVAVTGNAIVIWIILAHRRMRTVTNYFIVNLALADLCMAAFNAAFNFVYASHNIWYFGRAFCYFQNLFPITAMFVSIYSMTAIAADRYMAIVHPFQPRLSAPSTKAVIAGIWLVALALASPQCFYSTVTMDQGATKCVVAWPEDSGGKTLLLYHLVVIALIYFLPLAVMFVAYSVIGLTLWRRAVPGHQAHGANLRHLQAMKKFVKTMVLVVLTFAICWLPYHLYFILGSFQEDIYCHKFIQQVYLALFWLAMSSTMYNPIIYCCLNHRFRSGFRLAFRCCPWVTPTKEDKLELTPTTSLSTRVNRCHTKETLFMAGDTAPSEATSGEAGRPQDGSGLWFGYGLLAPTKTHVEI
# test: cell-based or functional assay
Where no end group is shown, it is not given here. [ ]: non-standard residue; d: D form. NMeL = CN[C@@H](CC(C)C)C(=O)O; Nle = CCCC[C@H](N)C(=O)O
assay metric: hNK2 EC50 (intracellular calcium mobilization, FLIPR, CHO-hNK2 cells) (nM)

binder	observed measurement
DRFVGLM (HELM PEPTIDE1{D.R.F.V.G.[meL].M.[am]}$$$$V2.0; N-terminus assumed; SMILES CSCC[C@H](NC(=O)[C@H](CC(C)C)N(C)C(=O)CNC(=O)[C@@H](NC(=O)[C@H](Cc1ccccc1)NC(=O)[C@H](CCCNC(=N)N)NC(=O)[C@@H](N)CC(=O)O)C(C)C)C(N)=O, synthetic heptapeptide analog of neurokinin A, Fmoc solid-phase synthesis; also called Compound C; Cmpd C) [Heptapeptide analog C, Asp-Arg-Phe-Val-Gly-(NMe-Leu)-Met-NH2]	0.16
DKFVALM (HELM PEPTIDE1{D.K.F.V.[bAla].L.M.[am]}$$$$V2.0; N-terminus assumed; SMILES CSCC[C@H](NC(=O)[C@H](CC(C)C)NC(=O)CCNC(=O)[C@@H](NC(=O)[C@H](Cc1ccccc1)NC(=O)[C@H](CCCCN)NC(=O)[C@@H](N)CC(=O)O)C(C)C)C(N)=O, synthetic heptapeptide analog of neurokinin A, Fmoc solid-phase synthesis; also called Compound E; Cmpd E) [Heptapeptide analog E, Asp-Lys-Phe-Val-(β-Ala)-Leu-Met-NH2]	0.18
DRFVALX (HELM PEPTIDE1{D.R.F.V.[bAla].L.[Nle].[am]}$$$$V2.0; N-terminus assumed; SMILES CCCC[C@H](NC(=O)[C@H](CC(C)C)NC(=O)CCNC(=O)[C@@H](NC(=O)[C@H](Cc1ccccc1)NC(=O)[C@H](CCCNC(=N)N)NC(=O)[C@@H](N)CC(=O)O)C(C)C)C(N)=O, synthetic heptapeptide analog of neurokinin A, Fmoc solid-phase synthesis; also called Compound K; Cmpd K) [Heptapeptide analog K, Asp-Arg-Phe-Val-(β-Ala)-Leu-Nle-NH2]	1.16
DRFVG[NMeL][Nle]-NH2 (synthetic heptapeptide analog of neurokinin A, Fmoc solid-phase synthesis; also called Compound B; Cmpd B) [Heptapeptide analog B, Asp-Arg-Phe-Val-Gly-(NMe-Leu)-Nle-NH2]	0.08
DKFVG[NMeL]M-NH2 (synthetic heptapeptide analog of neurokinin A, Fmoc solid-phase synthesis; also called Compound A; Cmpd A) [Heptapeptide analog A, Asp-Lys-Phe-Val-Gly-(NMe-Leu)-Met-NH2]	0.14

meta.source: patent US20200262868A1
